molecular target: CYP3A4 (Homo sapiens, UniProt P08684); experiment: CYP inhibition in human liver microsomes (Eurofins ITEMG232), midazolam substrate; assay type: in vitro ADME; set-up: isoform-specific substrates incubated with human liver microsomes; tissue Eurofins ITEMG232 (protocol number); host or cells: human liver microsomes; settings: human, probe midazolam, read-out: CYP3A4 midazolam Inh %
Sequence (P08684 whole entry, canonical isoform): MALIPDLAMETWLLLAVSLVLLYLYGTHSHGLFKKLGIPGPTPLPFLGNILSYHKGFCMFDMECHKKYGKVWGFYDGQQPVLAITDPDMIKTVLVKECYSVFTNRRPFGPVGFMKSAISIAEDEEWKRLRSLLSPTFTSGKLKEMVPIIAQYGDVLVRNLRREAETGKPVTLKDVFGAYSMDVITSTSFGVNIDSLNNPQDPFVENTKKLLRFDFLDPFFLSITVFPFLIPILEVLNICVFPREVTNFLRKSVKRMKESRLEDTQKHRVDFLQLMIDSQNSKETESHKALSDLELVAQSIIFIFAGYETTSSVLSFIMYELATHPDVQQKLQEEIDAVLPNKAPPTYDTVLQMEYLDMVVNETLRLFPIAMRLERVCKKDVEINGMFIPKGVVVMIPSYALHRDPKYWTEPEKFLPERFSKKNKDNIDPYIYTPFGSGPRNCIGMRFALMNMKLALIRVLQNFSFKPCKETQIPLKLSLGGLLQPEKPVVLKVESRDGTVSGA
measurement.label: inhibition at 10 µM (%)
Just the number in %, nothing appended.

Check out these entries, answers already filled in.
{"columns": ["chemical.string", "measurement.label", "unit.descriptor", "recorded.value"],
 "data": [
  ["CC(C)Cc1ccc(S(=O)(=O)Nc2ncc(Br)cn2)c(-c2ccc(Cn3ccnc3C(C)(C)C)cc2)c1", "inhibition at 10 µM", "%", 41.7],
  ["CC(C)Cc1ccc(S(=O)(=O)Nc2ncccn2)c(-c2ccc(Cn3ccnc3)c(F)c2)c1", "inhibition at 10 µM", "%", 94],
  ["CC(C)Cc1ccc(S(=O)(=O)Nc2ncc(Cl)cn2)c(-c2ccc(Cn3ccnc3C(C)(C)C)cc2)c1", "inhibition at 10 µM", "%", 36],
  ["CC(C)Cc1ccc(S(=O)(=O)Nc2ncccn2)c(-c2ccc(Cn3ccnc3C(C)(C)C)c(F)c2)c1", "inhibition at 10 µM", "%", -12.5],
  ["CC(C)Cc1ccc(S(=O)(=O)Nc2ncc(Cl)cn2)c(-c2ccc(Cn3ccnc3C(C)(C)C)c(F)c2)c1", "inhibition at 10 µM", "%", 32.1],
  ["Cc1cnc(NS(=O)(=O)c2ccc(CC(C)C)cc2-c2ccc(Cn3ccnc3C(C)(C)C)c(F)c2)nc1", "inhibition at 10 µM", "%", 48.7]
]}

*Q* Return inhibition at 10 µM measured with CYP3A4 (Homo sapiens, UniProt P08684) given this compound: CC(C)Cc1ccc(S(=O)(=O)Nc2nccs2)c(-c2ccc(Cn3ccnc3C(C)(C)C)cc2)c1
*A* -11.4

*Q* Return inhibition at 10 µM measured with CYP3A4 (Homo sapiens, UniProt P08684) given this compound: CC(C)Cc1ccc(S(=O)(=O)Nc2ncc(F)cn2)c(-c2ccc(Cn3ccnc3C(C)(C)C)cc2)c1
*A* 49.8
